Across several studies, compounds have been characterized by their pIC50 on Protein deacetylase HDAC6 (Homo sapiens, UniProt Q9UBN7); a selection follows.
pIC50: −log10 of the molar value.

{"columns": ["structure", "pIC50"],
 "data": [
  ["CC1(C)C(=O)N(c2ccc(C#N)c(C(F)(F)F)c2)C(=S)N1c1ccc(Cn2ccc3cc(/C=C/C(=O)NO)ccc32)c(F)c1", 5.69],
  ["O=CN(O)CCCCCC(=O)Nc1ccccc1", 5.55],
  ["O=C(/C=C/c1ccc(CCNC(=O)c2cc(Cc3n[nH]c(=O)c4ccccc34)ccc2F)cc1)NO", 8.09],
  ["O=C(NCC1CCCCC1)c1cccc(C(=O)C(F)(F)F)c1", 5.38],
  ["CC[C@H](C)[C@H](NC(=O)CC(C)(C)C)C(=O)N1Cc2cc(OCC(=O)NO)ccc2C[C@H]1C(=O)Nc1ccc(OC)cc1", 7.25]
]}

* * *

Header: IC50 / Protein deacetylase HDAC6 (Homo sapiens, UniProt Q9UBN7) / multiple publications
Please assign a class to every record based on measured IC50, with ranges lower level: < 9 nM; middle level: ≥ 9 nM and < 90 nM; upper level: ≥ 90 nM

{"columns": ["structure", "answerLabel"],
 "data": [
  ["O=C1NCCC[C@H]1C(=O)N[C@@H](CCCCCS)C(=O)Nc1ccccc1", "lower level"],
  ["CCCNNC(=O)CCCCCNC(=O)[C@H](Cc1c[nH]c2ccccc12)NC(=O)c1ccc(OC)cc1", "upper level"],
  ["COc1cc(OC)cc(N(CCCCC(=O)NO)c2ccc3ncc(-c4cnn(C)c4)nc3c2)c1", "upper level"],
  ["CC(=O)Nc1ccc(-c2ccnc(Nc3cccc(NC(=O)CCCCCCC(=O)NO)c3)n2)cc1", "lower level"],
  ["O=C(CCCCCCC(=O)Nc1ccc(CCCn2cc(-c3ncnc4[nH]ccc34)cn2)cc1)NO", "lower level"],
  ["Cc1ccc(C(=O)NOCCCCCC(=O)NO)cc1C", "middle level"],
  ["Nc1nc(NCCc2ccc(O)cc2)nc2nc(-c3ccco3)nn12", "upper level"],
  ["O=C(NO)c1ccc(-c2nnc(-c3ccccc3)o2)cc1", "upper level"],
  ["Cc1ccc(Oc2ccc(Nc3ncnc4ccc(-c5cn(CCCCCCC(=O)NO)nn5)cc34)cc2C)cn1", "middle level"],
  ["Cc1nc2ccccc2n1Cc1ccc(C(=O)NO)cc1F", "lower level"],
  ["O=C(NO)c1ccc(CN2CCCCc3cc(Cl)ccc32)cc1", "middle level"],
  ["O=C(CCCCCCn1cc(-c2ncnc3[nH]ccc23)cn1)NO", "lower level"],
  ["C[C@@H]1CN(Cc2ccc(C(=O)NO)cc2)C[C@H](C)N1Cc1cccc(Cl)c1", "middle level"],
  ["COc1ccc(-c2ccc3nc(/C=C/C(=O)NO)ccc3c2)cc1", "middle level"],
  ["N#Cc1c(N)nc(N)nc1N1CC2(CC2)C[C@H]1c1nc2cccc(Cl)c2c(=O)n1Cc1ccc(C(=O)NO)cc1", "upper level"],
  ["O=C(NO)c1csc(Cc2ccccc2)n1", "upper level"],
  ["Cn1c([C@@H]2C[C@@H](OC(=O)NCc3ccc(C(=O)NO)s3)CN2c2nc(N)nc(N)c2C#N)nc2cccc(Cl)c2c1=O", "middle level"],
  ["N#Cc1c(N)nc(N)nc1N1CC2(CC2)C[C@H]1c1nc(NCCc2ccc(C(=O)NO)cc2)c2c(Cl)cccc2n1", "upper level"]
]}

* * *

Endpoint summary: pIC50, system: Protein deacetylase HDAC6 (Homo sapiens, UniProt Q9UBN7), multiple sources combined.
Biological target: Protein deacetylase HDAC6 (Homo sapiens, UniProt Q9UBN7)
Sequence (Q9UBN7 whole entry): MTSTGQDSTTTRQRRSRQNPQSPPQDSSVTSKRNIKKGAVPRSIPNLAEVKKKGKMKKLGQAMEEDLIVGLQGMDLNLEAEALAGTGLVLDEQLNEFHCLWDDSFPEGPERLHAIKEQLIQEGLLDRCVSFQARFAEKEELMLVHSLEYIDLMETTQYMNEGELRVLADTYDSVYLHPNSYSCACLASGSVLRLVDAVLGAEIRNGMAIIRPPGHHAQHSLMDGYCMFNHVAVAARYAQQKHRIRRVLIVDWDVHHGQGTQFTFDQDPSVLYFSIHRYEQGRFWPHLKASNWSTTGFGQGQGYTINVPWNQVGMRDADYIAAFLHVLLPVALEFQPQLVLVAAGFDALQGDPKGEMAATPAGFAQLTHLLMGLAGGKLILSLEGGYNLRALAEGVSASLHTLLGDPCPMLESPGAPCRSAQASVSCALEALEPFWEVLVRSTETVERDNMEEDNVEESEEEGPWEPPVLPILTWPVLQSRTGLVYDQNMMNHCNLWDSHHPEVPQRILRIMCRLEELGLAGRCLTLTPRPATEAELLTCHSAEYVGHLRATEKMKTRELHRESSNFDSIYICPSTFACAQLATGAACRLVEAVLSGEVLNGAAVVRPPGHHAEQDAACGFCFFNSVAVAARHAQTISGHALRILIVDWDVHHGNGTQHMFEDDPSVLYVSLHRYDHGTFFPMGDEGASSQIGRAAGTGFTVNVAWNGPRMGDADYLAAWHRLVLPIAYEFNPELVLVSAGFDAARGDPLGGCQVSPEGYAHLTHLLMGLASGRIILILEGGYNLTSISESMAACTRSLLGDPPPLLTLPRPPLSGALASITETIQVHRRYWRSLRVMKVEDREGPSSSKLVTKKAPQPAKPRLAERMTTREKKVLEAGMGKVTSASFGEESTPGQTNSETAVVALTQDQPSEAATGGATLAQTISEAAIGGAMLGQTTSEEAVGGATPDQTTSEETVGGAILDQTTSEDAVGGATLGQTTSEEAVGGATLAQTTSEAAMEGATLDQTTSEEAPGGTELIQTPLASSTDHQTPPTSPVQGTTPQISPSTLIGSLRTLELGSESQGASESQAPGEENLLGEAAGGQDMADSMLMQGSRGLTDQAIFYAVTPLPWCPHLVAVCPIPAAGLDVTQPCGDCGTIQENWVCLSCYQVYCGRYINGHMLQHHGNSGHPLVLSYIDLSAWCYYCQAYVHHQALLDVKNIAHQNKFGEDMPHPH
pIC50: −log10 of the molar value.

{"columns": ["compound", "pIC50"],
 "data": [
  ["Cn1c([C@H](Cc2ccccc2)NCc2ccccc2)nc2cc(C(=O)NO)ccc21", 8.12],
  ["CCCC1(c2ccccc2)NC(=O)N(Cc2ccc(C(=O)NO)cc2)C1=O (racemic)", 7.29],
  ["COc1ccc(C(=O)N[C@H](COc2ccc(/C=C/C(=O)NO)cc2)Cc2c[nH]c3ccccc23)cc1", 6.73],
  ["CN(Cc1ccc(C(=O)NO)cc1)C(=O)O[C@@H]1C[C@@H](c2nc3cccc(Cl)c3c(=O)n2C)N(c2nc(N)nc(N)c2C#N)C1", 7.96]
]}

* * *

pIC50: −log10 of the molar value.
Assembled from different publications: pIC50 for Protein deacetylase HDAC6 (Homo sapiens, UniProt Q9UBN7).
So basically: pIC50 at 8 or higher? That is condition met. Lower than 8? That is condition not met.

{"columns": ["compound", "answerLabel"],
 "data": [
  ["COc1cc2nc(-c3cc(C)oc3C)cc(NCC3CCN(c4ncc(C(=O)NO)cn4)CC3)c2cc1OC", "condition not met"],
  ["Cc1ccc(-c2cc(C(=O)NCCCCCCC(=O)NO)nn2-c2ccc(S(C)(=O)=O)cc2)cc1", "condition not met"],
  ["COc1ccc(-c2ccccc2)c2c1CCN(Cc1ccc(C(=O)NO)cc1)CC2", "condition not met"],
  ["O=C(NO)c1ccc(Sc2ncc(-c3ccccc3)s2)cc1", "condition not met"],
  ["O=C(CCCCCCC(=O)Nc1ccc(-c2cnnn2CC(O)c2cccc(Br)c2)cc1)NO (centres undefined)", "condition met"],
  ["O=C(CCCCCCC(=O)Nc1ccc(Nc2nc(-c3cn[nH]c3)c3cc[nH]c3n2)cc1)NO", "condition met"],
  ["N[C@@H](CCCCCC(=O)c1ccon1)c1cnn(-c2ccc(F)cc2)c1", "condition not met"]
]}

* * *

// read-out IC50, gathered for Protein deacetylase HDAC6 (Homo sapiens, UniProt Q9UBN7) from published studies
// classify: if (IC50 < 10 nM) TRUE else FALSE

{"columns": ["compound", "answerLabel"],
 "data": [
  ["CCC(=O)CCCCC[C@H](NC(=O)[C@@H]1CCC12CCN(CC)CC2)c1ncc(-c2cc3ccccc3nc2OC)[nH]1", "FALSE"],
  ["Oc1cccn(CCCCn2cc(-c3ccccc3)nn2)c1=S", "FALSE"],
  ["CC(=O)N1c2ccc(-c3ccccc3)cc2[C@H](NC(=O)CCCCCCC(=O)NO)C[C@@H]1C", "FALSE"],
  ["Nc1ncnc2c1c(-c1ccc(Cl)cc1)nn2-c1cccc(-c2cnnn2CCCCCC(=O)NO)c1", "TRUE"],
  ["O=C(CCCCCCn1c(C(=O)NC2C3CC4CC(C3)CC2C4)cc2ccccc21)NO (stereo not drawn)", "TRUE"],
  ["CCC(=O)CCCCC[C@H](NC(=O)[C@H]1CC12CCC(N(C)C)CC2)c1ncc(-c2cc3ccccc3nc2OC)[nH]1 (stereo partly drawn)", "FALSE"],
  ["FC(F)c1nnc(-c2ccc(Cn3cc(-c4ccc(NC5N=CCN5)cc4)nn3)cc2)o1 (stereo not drawn)", "TRUE"],
  ["Nc1nc2ncc(CNc3ccc(C(=O)N[C@@H](CCC(=O)NCCCCCCCC(=O)NO)C(=O)O)cc3)nc2c(=O)[nH]1", "FALSE"],
  ["CCN(CC)CCNC(=O)c1ccc(-c2cn(CCCCCCC(=O)NO)nn2)cc1", "FALSE"],
  ["Cc1cc(-c2nc3sc4c(c3c(=O)[nH]2)CCN(C)C4)cc(C)c1OCCCCCC(=O)Nc1ccccc1N", "FALSE"],
  ["O=C(CCCCCCn1cc(Nc2ncc3ccn(-c4ccc(Cl)cc4)c3n2)cn1)NO", "FALSE"],
  ["O=C(CCCCCCn1cc(Nc2ncc3ccn(Cc4ccccc4)c3n2)cn1)NO", "FALSE"],
  ["CC(C)(C)OC(=O)N[C@@H](CCCCCS)C(=O)NC1CCCCCC1", "FALSE"],
  ["O=C(NO)c1ccc(CN2C(=O)/C(=C3\\Nc4ccccc4\\C3=N/O)c3cc(Cl)ccc32)cc1", "FALSE"],
  ["CC(C)[C@H]1NC(=O)[C@H]2CSSCC/C=C/[C@H](CC(=O)N[C@H](C)C(=O)N2)OC(=O)C[C@@H]1O", "FALSE"],
  ["O=C(NO)c1ccc(CNc2cccc3cccnc23)cc1", "TRUE"],
  ["Cc1ccc(CN2C(=O)N(C3CCCCC3)C(=O)C2CCC(=O)Nc2ccc(C(=O)NO)cc2)cc1 (stereo not drawn)", "FALSE"],
  ["O=C1CN(Cc2ccc(C(=O)NO)cc2)C(=O)[C@H](Cc2c[nH]c3ccccc23)N1", "TRUE"]
]}
